Cited source: ChEMBL document CHEMBL4834464

assay: Oral bioavailability in Beagle dog at 1 mg/kg measured up to 7 hrs by LC-MS/MS analysis; format: ADME, organism-based, Canis lupus familiaris; details: in vivo
Class Met: bioavailability at least 60%. Class Not met: bioavailability below 60%.

# TEST_SMILES, ANSWER_LABEL
rows = [
    ("CNC(=O)c1cc(C(=O)N[C@H]2CC[C@H](O)CC2)c([C@@H](C)c2cccc(Cl)c2)o1", "Met"),
    ("CNC(=O)c1cc(C(=O)N[C@H]2CC[C@H](O)CC2)n([C@@H](C)c2ccccc2)n1", "Not met"),
    ("CNC(=O)c1cc(C(=O)N[C@H]2CC[C@H](O)CC2)c([C@@H](C)c2ccccc2)o1", "Met"),
    ("CNC(=O)c1cc(C(=O)N[C@H]2[C@@H]3COC[C@@H]32)c([C@@H](C)c2ccccc2)o1", "Met"),
    ("CNC(=O)c1cc(C(=O)N[C@H]2CC[C@H](OC)CC2)n([C@@H](C)c2ccccc2)n1", "Met"),
    ("CNC(=O)c1cc(C(=O)N[C@H]2[C@@H]3C[C@@H](O)C[C@@H]32)c([C@@H](C)c2ccccc2)o1", "Not met"),
]

====

experiment: Distribution coefficient, logD of the compound by chromatography; type: physicochemical; details: octanol/water

# COMPOUND, chromatographic logD
measured = [
    ("CNC(=O)c1cc(C(=O)N[C@H]2CC[C@H](O)CC2)c([C@@H](C)c2cccc(OC)c2)o1", 2.9),
    ("CNC(=O)c1cc(C(=O)NC(C)CO)c([C@@H](C)c2ccccc2)o1 (some centres undefined)", 2.7),
    ("CNC(=O)c1cc(C(=O)N[C@H]2CC[C@H](O)CC2)c([C@@H](C)c2ccc(C)cc2)o1", 3.4),
    ("CNC(=O)c1cc(C(=O)NC2CCOCC2)n([C@@H](C)c2ccccc2)n1", 3.6),
    ("CNC(=O)c1cc(C(=O)N[C@H]2CC[C@H](O)CC2)n([C@@H](C)c2cccc(C)c2)n1", 3.4),
    ("CNC(=O)c1cc(C(=O)NC2CC2)n([C@@H](C)c2ccccc2)n1", 3.6),
    ("CNC(=O)c1cc(C(=O)N[C@H]2CC[C@H](OC)CC2)c([C@@H](C)c2ccccc2)o1", 4.1),
    ("CCCNC(=O)c1cc(C(=O)NC)nn1[C@@H](C)c1ccccc1", 4.4),
    ("CNC(=O)c1cc(C(=O)NC2CC2)n(Cc2ccccc2)n1", 3.1),
    ("CNC(=O)c1cc(C(=O)N[C@H]2CC[C@H](O)CC2)n([C@@H](C)c2ccc(Cl)cc2)n1", 3.7),
    ("CNC(=O)c1cc(C(=O)N[C@H]2CC[C@H](OC)CC2)n([C@@H](CO)c2ccccc2)n1", 2.7),
    ("CCC(=O)c1c[nH]c(C(=O)NC)c1", 3.1),
    ("CNC(=O)c1cc(C(=O)NC(C)CO)n([C@@H](C)c2ccccc2)n1 (some centres undefined)", 2.8),
    ("CC[C@@H](c1ccccc1)n1nc(C(=O)NC)cc1C(=O)N[C@H]1[C@@H]2C[C@@H](O)C[C@@H]21", 3.3),
    ("CNC(=O)c1cc(C(=O)N[C@H]2CC[C@H](O)CC2)n([C@@H](C)c2ccccc2Cl)n1", 3.9),
    ("CC(=O)Nc1c(F)cc(C(=O)N[C@H]2CC[C@H](O)CC2)cc1O[C@@H](C)c1ccccc1", 2.8),
    ("CNC(=O)c1cc(C(=O)NC2CC2)c([C@H](C)c2ccccc2)o1", 3.6),
    ("CNC(=O)c1cc(C(=O)NC)n([C@@H](C)c2ccccc2)n1", 3),
    ("CNC(=O)c1cc(C(=O)N[C@H]2[C@@H]3COC[C@@H]32)c([C@@H](C)c2ccccc2)o1", 4.1),
]

====

Here the recorded Papp is given for each entry.
test: Permeability of compound by AMP assay; format: ADME; details: not told; read-out: permeability
REPORTED_METRIC: Papp (×10⁻⁶ cm/s)

# COMPOUND, REL, REPORTED_MEASUREMENT
measured = [
    ("CNC(=O)c1cc(C(=O)N[C@H]2[C@@H]3C[C@@H](O)C[C@@H]32)n([C@@H](C)c2cccc(Cl)c2)n1", "=", 19.7),
    ("CNC(=O)c1cc(C(=O)N[C@H]2[C@@H]3C[C@@H](OC)C[C@@H]32)n([C@@H](C)c2ccccc2)n1", "=", 44),
    ("CNC(=O)c1cc(C(=O)NC2CC2)n(Cc2ccccc2)n1", ">", 8),
    ("CNC(=O)c1cc(C(=O)N[C@H]2CC[C@H](O)CC2)c([C@@H](C)c2ccc(C)cc2)o1", "=", 10.8),
    ("CCNC(=O)c1cc2c(-c3cc(C(C)(C)O)ccc3Oc3c(C)cc(F)cc3C)cn(C)c(=O)c2[nH]1 [ABBV-744]", "=", 41.3),
    ("CNC(=O)c1cc(C(=O)N[C@H]2[C@@H]3COC[C@@H]32)c([C@@H](C)c2ccccc2)o1", "=", 20),
    ("CNC(=O)c1cc(C(=O)N[C@H]2CC[C@H](O)CC2)c([C@@H](C)c2cccc(Cl)c2)o1", "=", 15),
    ("CC[C@@H](c1ccccc1)n1nc(C(=O)NC)cc1C(=O)N[C@H]1CC[C@H](O)CC1", "=", 7),
    ("CNC(=O)c1cc(C(=O)N[C@H]2CC[C@H](O)CC2)c([C@@H](C)c2ccccc2Cl)o1", "=", 7.8),
    ("CNC(=O)c1cc(C(=O)NC2CC2)c([C@@H](C)c2ccccc2)o1", "=", 50),
    ("CNC(=O)c1cc(C(=O)NC2CCOCC2)n([C@@H](C)c2ccccc2)n1", "=", 27),
    ("CNC(=O)c1cc(C(=O)N[C@H]2CC[C@H](OC)CC2)c([C@@H](C)c2ccccc2)o1", "=", 30.3),
    ("CNC(=O)c1cc(C(=O)N[C@H]2CC[C@H](O)CC2)n([C@@H](C)c2cccc(C)c2)n1", "=", 11),
    ("CNC(=O)c1cc(C(=O)N[C@H]2CC[C@H](O)CC2)n([C@@H](C)c2ccccc2)n1", "=", 8),
    ("CNC(=O)c1cc(C(=O)N[C@H]2CC[C@H](O)CC2)n([C@@H](C)c2ccc(C(F)(F)F)cc2)n1", "=", 27),
    ("CNC(=O)c1cc(C(=O)N[C@H]2CC[C@H](O)CC2)c([C@@H](C)c2cccc(F)c2)o1", "=", 7.3),
    ("CNC(=O)c1cc(C(=O)N[C@H]2[C@@H]3C[C@@H](O)C[C@@H]32)n([C@@H](C)c2ccccc2)n1", "=", 6.1),
    ("CNC(=O)c1cc(C(=O)N[C@H]2CC[C@H](O)CC2)n([C@@H](C)c2cccc(Cl)c2)n1", "=", 23.5),
    ("CNC(=O)c1cc(C(=O)NC(C)CO)c([C@@H](C)c2ccccc2)o1 (stereo not given in full)", "=", 5.7),
    ("CC[C@@H](c1ccccc1)n1nc(C(=O)NC)cc1C(=O)N[C@H]1[C@@H]2C[C@@H](O)C[C@@H]21", "=", 12),
    ("CNC(=O)c1cc(C(=O)NC2CC2)c([C@H](C)c2ccccc2)o1", ">", 0.4),
    ("CNC(=O)c1cc(C(=O)N[C@H]2CC[C@H](O)CC2)c([C@@H](C)c2cccc(C)c2)o1", "=", 8.5),
    ("CNC(=O)c1cc(C(=O)N[C@H]2[C@@H]3C[C@@H](O)C[C@@H]32)c([C@@H](C)c2ccccc2)o1", "=", 4.5),
    ("CNC(=O)c1cc(C(=O)N[C@H]2CC[C@H](O)CC2)n([C@@H](C)c2ccccc2Cl)n1", "=", 10),
    ("CNC(=O)c1cc(C(=O)N[C@H]2CC[C@H](O)CC2)c([C@@H](C)c2ccccc2)o1", "=", 4.2),
    ("CNC(=O)c1cc(C(=O)N[C@H]2CC[C@H](OC)CC2)n([C@@H](CO)c2ccccc2)n1", "=", 3.9),
    ("CNC(=O)c1cc(C(=O)NC(C)CO)n([C@@H](C)c2ccccc2)n1 (stereo not given in full)", "=", 12),
    ("CNC(=O)c1cc(C(=O)NC)n([C@@H](C)c2ccccc2)n1", "=", 28),
    ("CNC(=O)c1cc(C(=O)N[C@H]2CC[C@H](O)CC2)n([C@@H](C)c2ccc(Cl)cc2)n1", "=", 18),
    ("CNC(=O)c1cc(C(=O)NC2CC2)n([C@@H](C)c2ccccc2)n1", ">", 40),
    ("CNC(=O)c1cc(C(=O)N[C@H]2[C@@H]3C[C@H](O)C[C@@H]32)n([C@@H](C)c2cccc(Cl)c2)n1", "=", 33.3),
    ("CNC(=O)c1cc(C(=O)N[C@H]2[C@@H]3COC[C@@H]32)cc2c1O[C@H](CF)[C@H]2c1ccccc1 [GSK973]", "=", 16.5),
    ("CNC(=O)c1cc(C(=O)N[C@H]2CC[C@H](O)CC2)c([C@@H](C)c2ccc(Cl)cc2)o1", "=", 15),
    ("CNC(=O)c1cc(C(=O)N[C@H]2CC[C@H](OC)CC2)n([C@@H](C)c2ccccc2)n1", "=", 36),
    ("CCNC(=O)c1cc(C(=O)NC)oc1[C@@H](C)c1ccccc1", "=", 42),
]
